- Target desc: thrombin (Bos taurus)
- Construct: mature alpha-thrombin (light plus heavy chain) cut from prothrombin
- Procedure summary: Fibrinogen coagulation time (thrombin-induced clotting of fibrinogen)
- Assay type: biochemical
- Recorded conditions: bovine fibrinogen, borate saline buffer pH 7.4, thrombin 0.1 ml of 5 units/ml, 25°C; control coagulation time 50-55 seconds; read-out: Concentration required to prolong the coagulation time by a factor of 2
Non-standard residues stand in square brackets, D forms with d. Residues, ends and D or L forms follow the SMILES beside them. ξ: configuration not given here. *: point of attachment. Dansyl = CN(C)c1cccc2c(S(=O)(=O)*)cccc12; ξP = O=C(O)C1CCCN1; Sar = CNCC(=O)O
Readout type: IC (2-fold clotting time) (µM)

CN(C)c1cccc2c(S(=O)(=O)N[C@@H](CCCNC(=N)N)C(=O)N3CCOCC3)cccc12 ... 1.5
CN(C)c1cccc2c(S(=O)(=O)N[C@@H](CCCNC(=N)N)C(=O)NCCc3ccccc3)cccc12 [Sample 40, dihydrate] ... 150
CC1CN(C(=O)[C@H](CCCNC(=N)N)NS(=O)(=O)c2cccc3c(N(C)C)cccc23)CC(C)O1 (some centres unmarked) ... 20

1. CC(C)COC(=O)[C@H](CCCNC(=N)N)NS(=O)(=O)c1cccc2c(N(C)C)cccc12
2. CCOC(=O)CN(C)C(=O)[C@H](CCCNC(=N)N)NS(=O)(=O)c1cccc2c(N(C)C)cccc12 [Sample 49] (Dansyl-Arg-[Sar]-OEt)
3. CN1CCN(C(=O)[C@H](CCCNC(=N)N)NS(=O)(=O)c2cccc3c(N(C)C)cccc23)CC1
4. CCOC(=O)C1CCCN1C(=O)[C@H](CCCNC(=N)N)NS(=O)(=O)c1cccc2c(N(C)C)cccc12 (some centres unmarked) [Sample 54] (Dansyl-Arg-[ξP]-OEt)
IN: Exam item: list the entries in increasing order of IC (2-fold clotting time). Write the labels out in the order the request specifies.
OUT: 3, 2, 1, 4
(3: 2 µM, 2: 59 µM, 1: 110 µM, 4: 780 µM)

a. CN(C)c1cccc2c(S(=O)(=O)N[C@@H](CCCNC(=N)N)C(=O)N3CCCC3)cccc12 [Sample 53, diacetate]
b. CN(C)c1cccc2c(S(=O)(=O)N[C@@H](CCCNC(=N)N)C(=O)N3CCCCCCC3)cccc12
c. CN(Cc1ccccc1)C(=O)[C@H](CCCNC(=N)N)NS(=O)(=O)c1cccc2c(N(C)C)cccc12
d. CN(C)c1cccc2c(S(=O)(=O)N[C@@H](CCCNC(=N)N)C(=O)NCc3ccccc3)cccc12
e. CN(C)c1cccc2c(S(=O)(=O)N[C@@H](CCCNC(=N)N)C(=O)N3CCC(C(N)=O)CC3)cccc12
IN: # sort list by recorded IC (2-fold clotting time), greatest to least List the labels according to the requested ordering.
OUT: e, d, c, a, b
(e: 100 µM, d: 50 µM, c: 7 µM, a: 3.3 µM, b: 1 µM)

###

- Target desc: thrombin (Bos taurus)
- Construct: mature alpha-thrombin (light plus heavy chain) cut from prothrombin
- Procedure summary: Fibrinogen coagulation time (thrombin-induced clotting of fibrinogen)
- Type: biochemical
- Recorded conditions: bovine fibrinogen, borate saline buffer pH 7.4, thrombin 0.1 ml of 5 units/ml, 25°C; control coagulation time 50-55 seconds; read-out: Concentration required to prolong the coagulation time by a factor of 2
Readout type: IC (2-fold clotting time) (µM)

A selection of reference data follows.
CCC(COC(=O)[C@H](CCCNC(=N)N)NS(=O)(=O)c1cccc2c(N(C)C)cccc12)[N+](=O)[O-] (stereo partly shown) [Sample 19] ... 200
CCC1CCN(C(=O)[C@H](CCCNC(=N)N)NS(=O)(=O)c2cccc3c(N(C)C)cccc23)CC1 [Sample 59] ... 0.1

P. CC(C)C1CCN(C(=O)[C@H](CCCNC(=N)N)NS(=O)(=O)c2cccc3c(N(C)C)cccc23)CC1 [Sample 61]
Q. CC=CCOC(=O)[C@H](CCCNC(=N)N)NS(=O)(=O)c1cccc2c(N(C)C)cccc12 [Sample 12, N^2 -dansyl-L-arginine crotyl ester]
R. CCCNC(=O)[C@H](CCCNC(=N)N)NS(=O)(=O)c1cccc2c(N(C)C)cccc12 [Sample 21, monohydrate]
S. COCCOC(=O)[C@H](CCCNC(=N)N)NS(=O)(=O)c1cccc2c(N(C)C)cccc12 [Sample 16]
T. C=CCNC(=O)[C@H](CCCNC(=N)N)NS(=O)(=O)c1cccc2c(N(C)C)cccc12 [Sample 35, N^2 -dansyl-N-allyl-L-argininamide]
IN: Arrange items by their IC (2-fold clotting time) values in increasing order. Rank them, then answer with their labels in that order.
OUT: P, Q, S, T, R

###

- Target desc: thrombin (Bos taurus)
- Construct: mature alpha-thrombin (light plus heavy chain) cut from prothrombin
- Procedure summary: Fibrinogen coagulation time (thrombin-induced clotting of fibrinogen)
- Type: biochemical
- Recorded conditions: bovine fibrinogen, borate saline buffer pH 7.4, thrombin 0.1 ml of 5 units/ml, 25°C; control coagulation time 50-55 seconds; read-out: Concentration required to prolong the coagulation time by a factor of 2
Where a name gives a salt, the structure may show the parent alone.
Readout type: IC (2-fold clotting time) (µM)

Some solved entries appear below for comparison.
CCNC(=O)[C@H](CCCNC(=N)N)NS(=O)(=O)c1cccc2c(N(C)C)cccc12 [Sample 20, monohydrate] ... 100
CCOC(=O)CCN(C)C(=O)[C@H](CCCNC(=N)N)NS(=O)(=O)c1cccc2c(N(C)C)cccc12 ... 15
CCCCCNC(=O)[C@H](CCCNC(=N)N)NS(=O)(=O)c1cccc2c(N(C)C)cccc12 ... 125
COC(=O)C1CCN(C(=O)[C@H](CCCNC(=N)N)NS(=O)(=O)c2cccc3c(N(C)C)cccc23)CC1 ... 2.8
CCCCNC(=O)[C@H](CCCNC(=N)N)NS(=O)(=O)c1cccc2c(N(C)C)cccc12 [Sample 22, monohydrate] ... 25
CC(C)OC(=O)[C@H](CCCNC(=N)N)NS(=O)(=O)c1cccc2c(N(C)C)cccc12 [Sample 4, dihydrochloride] ... 30

I. CCOCCNC(=O)[C@H](CCCNC(=N)N)NS(=O)(=O)c1cccc2c(N(C)C)cccc12
II. CN(C)c1cccc2c(S(=O)(=O)N[C@@H](CCCNC(=N)N)C(=O)N3CCCCCC3)cccc12
III. CN(C)c1cccc2c(S(=O)(=O)N[C@@H](CCCNC(=N)N)C(=O)OCC3CCCO3)cccc12 (some centres unmarked)
IV. CN(C)c1cccc2c(S(=O)(=O)N[C@@H](CCCNC(=N)N)C(=O)NCC3CCCCC3)cccc12
V. CC(C)NC(=O)[C@H](CCCNC(=N)N)NS(=O)(=O)c1cccc2c(N(C)C)cccc12 [Sample 26, N^2 -dansyl-N-isopropyl-L-argininamide]
IN: # rank by IC (2-fold clotting time), ascending (min first) Give your ranking as a list of the labels in the requested order.
OUT: II, I, III, IV, V

###

- Target desc: thrombin (Bos taurus)
- Construct: mature alpha-thrombin (light plus heavy chain) cut from prothrombin
- Procedure summary: Fibrinogen coagulation time (thrombin-induced clotting of fibrinogen)
- Assay type: biochemical
- Recorded conditions: bovine fibrinogen, borate saline buffer pH 7.4, thrombin 0.1 ml of 5 units/ml, 25°C; control coagulation time 50-55 seconds; read-out: Concentration required to prolong the coagulation time by a factor of 2
- Method: The antithrombotic activities of the N^2 -dansyl-L-arginine derivatives of this invention were compared with those of a known antithrombotic agent, (N^2 -(p-tolylsulfonyl)-L-arginine methyl ester). by determining the fibrinogen coagulation time. The measurement of the fibrinogen coagulation time was conducted as follows: Immediately after mixing, the reaction mixture was transferred from the ice bath to a bath thermostated at 25°C. […]
Readout type: IC (2-fold clotting time) (µM)

Before answering, review these 3 worked examples.
C#CCCOC(=O)[C@H](CCCNC(=N)N)NS(=O)(=O)c1cccc2c(N(C)C)cccc12 ... 4
CCCOC(=O)[C@H](CCCNC(=N)N)NS(=O)(=O)c1cccc2c(N(C)C)cccc12 ... 2
CCCC1CCN(C(=O)[C@H](CCCNC(=N)N)NS(=O)(=O)c2cccc3c(N(C)C)cccc23)CC1 ... 1

P. CCCCN(C)C(=O)[C@H](CCCNC(=N)N)NS(=O)(=O)c1cccc2c(N(C)C)cccc12
Q. CCCCN(CCCC)C(=O)[C@H](CCCNC(=N)N)NS(=O)(=O)c1cccc2c(N(C)C)cccc12
IN: Between P and Q , which one has the lower reported IC (2-fold clotting time) value? Pick one and reply with its label.
OUT: P
(P: 2 µM, Q: 39 µM)

1. CC1CCCN(C(=O)[C@H](CCCNC(=N)N)NS(=O)(=O)c2cccc3c(N(C)C)cccc23)C1 (some centres unmarked)
2. CN(C)c1cccc2c(S(=O)(=O)N[C@@H](CCCNC(=N)N)C(=O)N3CCCCCCCC3)cccc12
IN: Which has the higher IC (2-fold clotting time), 1 or 2 ? // return label of chosen record
OUT: 1
(1: 6.5 µM, 2: 2 µM)
